From various publications: IC50 for Prostaglandin G/H synthase 1 (Homo sapiens).
Give bare numbers, in µM.

Examples from the recorded data:
molecule	reported result
COc1ccc(-c2nc(N3N=C(c4ccc(F)cc4)CCC3=O)n(C)c(=O)c2C#N)cc1	115
CN(C)c1ccc(Nc2nc(-c3ccncc3)nc3c2CC(N)CC3)cc1 (centres undefined)	4
CC1Cn2c(S)nc3cc(Cl)cc(c32)CN1CC1CCC1 (centres undefined)	9.56

Now examine the next entry.
Req: Recall and state the measured IC50 for CCC(=CCN1Cc2cc(Cl)cc3nc(S)n(c23)CC1C)CC (centres undefined) .
Resp: 9.56
